target: CIB1 and αIIb interaction (CIB1-GST : F-αIIb peptide) (Homo sapiens); construct: made in house; host or cells: BL-21 plus RIL cells (E. coli); experiment: FP assay, 1536-well qHTS format (primary and confirmatory screen); format: binding; details: qHTS primary screen hits, Table S2; negative = inhibition
Sequence (Q99828 whole entry): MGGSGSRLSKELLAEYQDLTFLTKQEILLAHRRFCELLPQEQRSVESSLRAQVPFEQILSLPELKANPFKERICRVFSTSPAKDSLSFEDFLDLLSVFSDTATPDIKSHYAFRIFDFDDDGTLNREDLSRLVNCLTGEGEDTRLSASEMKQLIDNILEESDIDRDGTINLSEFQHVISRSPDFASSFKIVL
Parameter threshold = -40%. Response is Criterion met when Efficacy (%) meets or exceeds it, else Criterion not met.

Example results:
1) Cc1ccc(S(=O)(=O)Nc2ccc(O)c3ccccc23)c(C)c1.O=C(O)C(F)(F)F: Criterion met
2) CCCCCCCCCCCCCCCC[N+](C)(C)CC.[Br-]: Criterion not met
3) O=C(O)C(F)(F)F.O=C1CC(c2c(F)cccc2F)c2sc(N3CCOCC3)nc2N1 (centres unmarked): Criterion not met
4) O=C(O)C(F)(F)F.O=C1CCCC2=C1C1(CCCOC1)N=C(Nc1nc3ccccc3o1)N2 (centres unmarked): Criterion met
5) O=S(=O)(c1ccc2nc(Cl)c(Cl)nc2c1)N1CCN(S(=O)(=O)c2c(F)cccc2F)CC1: Criterion met

In: Reported Efficacy (%) reaches at least -40% for O=C(O)C(F)(F)F.O=C(O)c1ccc(-c2ccc3ncnc(N4CCOCC4)c3c2)o1 ?
Out: Criterion met

In: Try this compound too: Cc1cc(C2N=C(Nc3nc4ccccc4o3)NC3=C2C(=O)CCC3)n[nH]1.O=C(O)C(F)(F)F (centres unmarked)
Out: Criterion met
